Measured Hepatotoxicity (cytolytic), listed per entry for reference.
conditions: human

IN: I'd like to know its Hepatotoxicity (cytolytic). The molecule in question is COc1c(N2C[C@@H]3CCCN[C@@H]3C2)c(F)cc2c(=O)c(C(=O)O)cn(C3CC3)c12 [MOXIFLOXACIN]
OUT: 0

IN: I'd like to know its Hepatotoxicity (cytolytic). The molecule in question is CCN(CC)CCNC(=O)c1ccc(N)cc1 [PROCAINAMIDE]
OUT: 1

IN: I'd like to know its Hepatotoxicity (cytolytic). The molecule in question is CC(C)=CCC/C(C)=C/CC/C(C)=C/CCC(=O)OC/C=C(\C)CCC=C(C)C [GEFARNATE]
OUT: 0

***
IN: I'd like to know its Hepatotoxicity (cytolytic). The molecule in question is CC1(C)S[C@@H]2[C@H](N3C(=O)[C@@H](c4ccccc4)NC3(C)C)C(=O)N2[C@H]1C(=O)O [HETACILLIN]
OUT: 1

---

details: human
assay-endpoint: Hepatotoxicity (severe hepatitis)

# count of solved cases: 6
IN: I'd like to know its Hepatotoxicity (severe hepatitis). The compound in question is CCC(COC(=O)c1cc(OC)c(OC)c(OC)c1)(c1ccccc1)N(C)C (centres undefined)
OUT: 0

IN: I'd like to know its Hepatotoxicity (severe hepatitis). The compound in question is O=C(Cn1ccnc1[N+](=O)[O-])NCc1ccccc1
OUT: 0

IN: I'd like to know its Hepatotoxicity (severe hepatitis). The compound in question is CC(CN(C)C)CN1c2ccccc2Sc2ccc(C#N)cc21 (centres undefined)
OUT: 1

IN: I'd like to know its Hepatotoxicity (severe hepatitis). The compound in question is CC(=O)Nc1nnc(S(N)(=O)=O)s1 [ACETAZOLAMIDE]
OUT: 1

IN: I'd like to know its Hepatotoxicity (severe hepatitis). The compound in question is C[C@H]1C[C@H]2[C@@H]3CCC4=CC(=O)C=C[C@]4(C)[C@@]3(F)[C@@H](O)C[C@]2(C)[C@@]1(O)C(=O)CO
OUT: 0

IN: I'd like to know its Hepatotoxicity (severe hepatitis). The compound in question is CN1CCN(C2=Nc3ccccc3Oc3ccc(Cl)cc32)CC1
OUT: 0

***
IN: I'd like to know its Hepatotoxicity (severe hepatitis). The compound in question is CCOC(=O)[C@H](CCc1ccccc1)N[C@@H](C)C(=O)N1Cc2ccccc2C[C@H]1C(=O)O
OUT: 0

IN: I'd like to know its Hepatotoxicity (severe hepatitis). The compound in question is CN1C2CCCC1CC(NC(=O)c1nn(C)c3ccccc13)C2 (centres undefined)
OUT: 0

IN: I'd like to know its Hepatotoxicity (severe hepatitis). The compound in question is C=CC(N)CCC(=O)O (centres undefined)
OUT: 1

---

conditions: human
assay-endpoint: Hepatotoxicity (cytolytic)
Answer with a number only.

# count of solved cases: 5
IN: I'd like to know its Hepatotoxicity (cytolytic). The molecule in question is O=NN(CCCl)C(=O)NC1CCCCC1
OUT: 1

IN: I'd like to know its Hepatotoxicity (cytolytic). The molecule in question is S=P(N1CC1)(N1CC1)N1CC1
OUT: 1

IN: I'd like to know its Hepatotoxicity (cytolytic). The molecule in question is COc1c2occc2c(OC)c2c(=O)cc(C)oc12
OUT: 1

IN: I'd like to know its Hepatotoxicity (cytolytic). The molecule in question is CCc1c2c(nc3ccc(OC(=O)N4CCC(N5CCCCC5)CC4)cc13)-c1cc3c(c(=O)n1C2)COC(=O)[C@]3(O)CC
OUT: 1

IN: I'd like to know its Hepatotoxicity (cytolytic). The molecule in question is NC(=O)N1C(=O)/C(=C(\O)c2cccs2)c2cc(Cl)ccc21
OUT: 1

***
IN: I'd like to know its Hepatotoxicity (cytolytic). The molecule in question is O=C(c1cc(O)c(O)c(O)c1)c1ccc(O)c(O)c1O
OUT: 9

IN: I'd like to know its Hepatotoxicity (cytolytic). The molecule in question is CCC(=O)O[C@](Cc1ccccc1)(c1ccccc1)[C@H](C)CN(C)C
OUT: 7

IN: I'd like to know its Hepatotoxicity (cytolytic). The molecule in question is NC(=O)c1cnccn1 [PYRAZINAMIDE]
OUT: 28

IN: I'd like to know its Hepatotoxicity (cytolytic). The molecule in question is CC(C(=O)O)c1ccc(-c2ccccc2)c(F)c1 (centres undefined)
OUT: 2

Hello, the source for this data is ChEMBL document CHEMBL3137667, in case you need it.
